System: Rattus norvegicus
Assay Details: In vivo inhibition of deoxycorticosterone acetate-induced urinary electrolyte effect in sc dosed adrenalectomized rat measured over 4 hrs
Assay type: functional, Urine
Below, each entry is listed alongside its reported MED50.

Below: 5 compounds and their reported MED50.
C[C@]12CCC(=O)C=C1C[C@@H](C#N)[C@@H]1[C@@H]2CC[C@@]2(C)[C@H]1CC[C@@]21CCC(=O)O1 0.39 mg
C[C@]12CCC(=O)C=C1C[C@@H](N=C=O)[C@@H]1[C@@H]2CC[C@@]2(C)[C@H]1CC[C@@]21CCC(=O)O1 >2.4 mg
C[C@]12CC[C@H]3[C@@H]([C@H](C#N)CC4=CC(=O)CC[C@@H]43)[C@@H]1CC[C@@]21CCC(=O)O1 1.3 mg
C[C@]12C=CC(=O)C=C1C[C@@H](C#N)[C@@H]1[C@@H]2CC[C@@]2(C)[C@H]1CC[C@@]21CCC(=O)O1 2.3 mg
COC(=O)N[C@@H]1CC2=CC(=O)CC[C@]2(C)[C@H]2CC[C@@]3(C)[C@@H](CC[C@@]34CCC(=O)O4)[C@H]12 0.79 mg

Prompt line: MED50 lookup needed for `CCOC(=O)N[C@@H]1CC2=CC(=O)CC[C@]2(C)[C@H]2CC[C@@]3(C)[C@@H](CC[C@@]34CCC(=O)O4)[C@H]12` , thanks.
Response line: >2.4 mg
